Origin of values: ChEMBL document CHEMBL1921670

pIC50: −log10 of the molar value.
A set of compounds tested on Rho-associated protein kinase 1 (Homo sapiens, UniProt Q13464), with measured pIC50:
Readout Kind: pIC50

structure_string=COc1cccc(CNC(=O)c2cc3ccc(-c4cn[nH]c4)nc3n2C)c1 quantitative_readout=8.70
structure_string=COc1cccc(CNC(=O)c2cn(CCCO)c3cc(-c4cn[nH]c4)ccc23)c1 quantitative_readout=8.52
structure_string=COc1cccc(CNC(=O)c2cn(-c3ccccc3)c3cc(-c4cn[nH]c4)ccc23)c1 quantitative_readout=7.68
structure_string=COc1cccc(CNC(=O)c2[nH]c3nc(-c4cn[nH]c4)ccc3c2CN2CCN(C)CC2)c1 quantitative_readout=7.41
structure_string=COc1cccc(CN(CCN2CCCC2)C(=O)c2cc3ccc(-c4cn[nH]c4)nc3n2C)c1 quantitative_readout=6.00
structure_string=COc1cccc(CN(CCN(C)C)C(=O)c2cn(CCN3CCCC3)c3cc(-c4cn[nH]c4)ccc23)c1 quantitative_readout=5.05
